Biological target: native α7 nAChRs in rat primary hippocampal neurons (Rattus norvegicus, UniProt Q05941)
Construct: native α7 nAChRs in rat primary hippocampal neurons; host or cells: primary hippocampal neurons from E18 Sprague Dawley rat
Sequence (Q05941 23-502): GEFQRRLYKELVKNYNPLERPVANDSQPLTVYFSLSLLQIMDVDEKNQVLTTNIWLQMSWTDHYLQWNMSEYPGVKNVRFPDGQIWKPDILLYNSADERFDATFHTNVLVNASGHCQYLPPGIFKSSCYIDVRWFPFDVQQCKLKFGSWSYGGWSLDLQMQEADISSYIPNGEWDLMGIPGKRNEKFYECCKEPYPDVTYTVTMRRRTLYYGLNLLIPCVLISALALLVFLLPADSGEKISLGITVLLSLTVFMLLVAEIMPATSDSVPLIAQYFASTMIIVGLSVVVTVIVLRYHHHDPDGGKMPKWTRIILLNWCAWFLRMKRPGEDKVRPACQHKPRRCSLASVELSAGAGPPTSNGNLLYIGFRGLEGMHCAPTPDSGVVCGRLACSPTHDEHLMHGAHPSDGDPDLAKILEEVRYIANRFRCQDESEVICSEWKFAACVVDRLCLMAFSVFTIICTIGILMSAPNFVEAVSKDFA
Assay: Fluorescence-based intracellular calcium imaging of rat primary hippocampal neurons
Assay type: cell-based
Conditions: 4BP-TQS 10 µM; TQS 0.3 to 30 µM pre-applied 30 s then co-applied; n = 3; read-out: IC50, block of responses evoked by 4BP-TQS
metric name: pIC50
pIC50 (log units): -log10 of the concentration in mol/L.

The value of pIC50 recorded for `NS(=O)(=O)c1ccc2c(c1)[C@@H]1C=CC[C@@H]1[C@H](c1cccc3ccccc13)N2` when tested on native α7 nAChRs in rat primary hippocampal neurons (Rattus norvegicus, UniProt Q05941) reads 5.21
